The entries below come with measured Signal/background values attached.
study_system: T1, DPYSL4 peptide complexed with HLA-A*02:01 on T2 cells (human)
T1 construct: whole, on cells
method_summary: flow cytometry, peptide-loaded T2 cells;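 note: binding of single-chain Fv antibody constructs, raised in XenoMouse, to peptide-pulsed T2 cells measured by flow cytometry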
Give only the figure.

Consider the following illustrative entries.
{"columns": ["binder", "observed_measurement"],
 "data": [
  ["18089-D12 (scFv, scFv in bacterial lysate, detected with anti-Flag M2) scFv: EVQLLESGGGVVQPGRSLRLSCAASGFTFSTYGMHWVRQAPGKGLEWVAVISYDGSNKYYADSVKGRFTISRDDSKNTLYLQMNSLRAEDTAVYYCARGQLLTGYWGQGTLVTVSSGGGGSGGGGSGGGGSELVMTQSPSSLSASVGDRVTITCRASQGISNYLAWYQQKPGKVPKLLIYAASTLQSGVPSRFSGSGSGTDFTLTISSLQPEDVATYYCQKYNSAPFTFGPGTKVEIK", 1.1],
  ["18182-A4 (scFv, scFv in bacterial lysate, detected with anti-Flag M2) scFv: EVQLLESGGGVVQPGRSLRLSCAASGFTFSSYAMTWVRQAPGQGLEWVSSISGSGGGTYYAASVKGRFTISRDNSKNTLYLQMNSLRAEDTAVYYCATGKGVHLGFDYWGQGTLVTVSSGGGGSGGGGSGGGGSELVLTQPPSVSVAPGQTARITCGGNNIGSKSVHWYQQKPGQAPVLVVYDDNDRPSGIPERFSGSNFGNTATLIISRVAAGDEADYYCQVWDSSSDHVVFGGGTKLTVL", 1]
]}

Okay, now this binder:
What value of Signal/background has been reported for the following binder? 18181-B8 (scFv, scFv in bacterial lysate, detected with anti-Flag M2) scFv: EVQLLESGPGLVKPSQTLSLTCTVSGGSISSGGYYWSWIRQHPGKGLEWIGYISHSGSTYYNPSLKSRVTISVDTSKNQFSLNLTSVTAADTAVYYCAREKMWFGVLNYYYGMDVWGQGTTVTVSSGGGGSGGGGSGGGGSELVMTQTPLSLPVTPGEPASISCRSSQSLLHRNGYNYLDWYLQKPGQSPQLLIYLGSNRASGVPDRFIGSGSGTDFTLEISRVEAEDVGVYYCMQALQTPSFGQGTKVEIK 1
